The reported measurements were obtained from patent US20090221697A1.

- Test system: blood cells
- methodDescription: Uptake of conjugates into blood cells (buffy coat preparations), LC/MS
- Type: in vitro ADME
- Design: key: −: excluded from blood cells; +: equal or similar; ++: >5-fold enhancement in blood cells; +++: >10-fold enhancement in blood cells
- testSettings: substrates 1 to 10 μM, 37° C., 5% CO2, screening samples at 0 and 120 minutes
- Procedure: Freshly drawn heparinised blood or buffy coat preparations are used for the determination of conjugate uptake. Buffy coat preparations are preferred. They may be obtained from donor blood by simple centrifugation of whole blood (4795 g for 10 minutes). […] Uptake of compounds is monitored using chromatographic analysis (LC/MS) with mass selective detection. […]
parameter: Ratio internal over external concentration

molecule="CC1(C)Cc2c(-c3ccccc3)c(-c3cc4ccccc4o3)c(CC(=O)O)n2C1 [Drug component of 5 (without macrolide), reference compound]" valuemeasured=+
molecule="CC1(C)Cc2c(-c3ccccc3)c(-c3ccc(Cl)s3)c(CC(=O)O)n2C1 [Drug component of 8 (without macrolide), reference compound]" valuemeasured=+
